assay: Plasma concentration in collagen-induced Lewis rat arthritic model at 10 mg/kg, po qd measured at 4 hrs; type: ADME, organism-based; design: dose 10 mg/kg, route oral
Reported property: concentration at 4 h (nM)
Field: numeric (nM). Do not append units.

Request: Entry `Cc1cc(C)nc(Nc2cc(N[C@@H]3CCCC[C@@H]3N)cnc2C(N)=O)c1` has what concentration at 4 h?
Response: 500

* * *

assay: Cmax in collagen-induced Lewis rat arthritic model at 3 mg/kg, po qd; assay type: ADME, organism-based; design: dose 3 mg/kg, route oral; details: in vivo
Reported property: Cmax (nM)
Field: numeric (nM). Do not append units.

Request: Entry `Cc1cc(C)nc(Nc2cc(N[C@@H]3CCCC[C@@H]3N)cnc2C(N)=O)c1` has what Cmax?
Response: 200

* * *

assay: physchem
Reported property: pKa at 100 µM
The answer should be written as a number, with no unit following it.

Request: Entry `Cc1cc(C)nc(Nc2cc(N[C@@H]3CCCC[C@@H]3N)cnc2C(N)=O)c1` has what pKa at 100 µM?
Response: 9

* * *

assay: Plasma concentration in collagen-induced Lewis rat arthritic model at 10 mg/kg, po qd measured at 24 hrs; format: ADME, organism-based; set-up: dose 10 mg/kg, route oral
Reported property: concentration at 24 h (nM)
Field: numeric (nM). Do not append units.

Request: Entry `Cc1cc(C)nc(Nc2cc(N[C@@H]3CCCC[C@@H]3N)cnc2C(N)=O)c1` has what concentration at 24 h?
Response: 10

* * *

assay: Plasma concentration in collagen-induced Lewis rat arthritic model at 3 mg/kg, po qd measured at 24 hrs; assay type: ADME, organism-based; set-up: dose 3 mg/kg, route oral
Reported property: concentration at 24 h (nM)
Field: numeric (nM). Do not append units.

Request: Entry `Cc1cc(C)nc(Nc2cc(N[C@@H]3CCCC[C@@H]3N)cnc2C(N)=O)c1` has what concentration at 24 h?
Response: 7

* * *

assay: in vivo; conditions: rat, po
Reported property: bioavailability

Request: Entry `Cc1cc(C)nc(Nc2cc(N[C@@H]3CCCC[C@@H]3N)cnc2C(N)=O)c1` has what bioavailability?
Response: 19%

Request: Entry `COc1cccc2[nH]c(-c3nc(N[C@@H]4CCOC[C@@H]4N)cnc3C(N)=O)cc12` has what bioavailability?
Response: 29%

* * *

assay: Plasma concentration in collagen-induced Lewis rat arthritic model at 3 mg/kg, po qd measured at 2 hrs; format: ADME, organism-based; design: dose 3 mg/kg, route oral
Reported property: concentration at 2 h (µM)
Field: numeric (µM). Do not append units.

Request: Entry `Cc1cc(C)nc(Nc2cc(N[C@@H]3CCCC[C@@H]3N)cnc2C(N)=O)c1` has what concentration at 2 h?
Response: 0.06

Source listed as ChEMBL document CHEMBL3414497.
